Recorded measurements of pIC50, one per entry
assayedSystem: Sodium channel protein type 9 subunit alpha (Homo sapiens, UniProt Q15858)
Sequence (Q15858 whole entry): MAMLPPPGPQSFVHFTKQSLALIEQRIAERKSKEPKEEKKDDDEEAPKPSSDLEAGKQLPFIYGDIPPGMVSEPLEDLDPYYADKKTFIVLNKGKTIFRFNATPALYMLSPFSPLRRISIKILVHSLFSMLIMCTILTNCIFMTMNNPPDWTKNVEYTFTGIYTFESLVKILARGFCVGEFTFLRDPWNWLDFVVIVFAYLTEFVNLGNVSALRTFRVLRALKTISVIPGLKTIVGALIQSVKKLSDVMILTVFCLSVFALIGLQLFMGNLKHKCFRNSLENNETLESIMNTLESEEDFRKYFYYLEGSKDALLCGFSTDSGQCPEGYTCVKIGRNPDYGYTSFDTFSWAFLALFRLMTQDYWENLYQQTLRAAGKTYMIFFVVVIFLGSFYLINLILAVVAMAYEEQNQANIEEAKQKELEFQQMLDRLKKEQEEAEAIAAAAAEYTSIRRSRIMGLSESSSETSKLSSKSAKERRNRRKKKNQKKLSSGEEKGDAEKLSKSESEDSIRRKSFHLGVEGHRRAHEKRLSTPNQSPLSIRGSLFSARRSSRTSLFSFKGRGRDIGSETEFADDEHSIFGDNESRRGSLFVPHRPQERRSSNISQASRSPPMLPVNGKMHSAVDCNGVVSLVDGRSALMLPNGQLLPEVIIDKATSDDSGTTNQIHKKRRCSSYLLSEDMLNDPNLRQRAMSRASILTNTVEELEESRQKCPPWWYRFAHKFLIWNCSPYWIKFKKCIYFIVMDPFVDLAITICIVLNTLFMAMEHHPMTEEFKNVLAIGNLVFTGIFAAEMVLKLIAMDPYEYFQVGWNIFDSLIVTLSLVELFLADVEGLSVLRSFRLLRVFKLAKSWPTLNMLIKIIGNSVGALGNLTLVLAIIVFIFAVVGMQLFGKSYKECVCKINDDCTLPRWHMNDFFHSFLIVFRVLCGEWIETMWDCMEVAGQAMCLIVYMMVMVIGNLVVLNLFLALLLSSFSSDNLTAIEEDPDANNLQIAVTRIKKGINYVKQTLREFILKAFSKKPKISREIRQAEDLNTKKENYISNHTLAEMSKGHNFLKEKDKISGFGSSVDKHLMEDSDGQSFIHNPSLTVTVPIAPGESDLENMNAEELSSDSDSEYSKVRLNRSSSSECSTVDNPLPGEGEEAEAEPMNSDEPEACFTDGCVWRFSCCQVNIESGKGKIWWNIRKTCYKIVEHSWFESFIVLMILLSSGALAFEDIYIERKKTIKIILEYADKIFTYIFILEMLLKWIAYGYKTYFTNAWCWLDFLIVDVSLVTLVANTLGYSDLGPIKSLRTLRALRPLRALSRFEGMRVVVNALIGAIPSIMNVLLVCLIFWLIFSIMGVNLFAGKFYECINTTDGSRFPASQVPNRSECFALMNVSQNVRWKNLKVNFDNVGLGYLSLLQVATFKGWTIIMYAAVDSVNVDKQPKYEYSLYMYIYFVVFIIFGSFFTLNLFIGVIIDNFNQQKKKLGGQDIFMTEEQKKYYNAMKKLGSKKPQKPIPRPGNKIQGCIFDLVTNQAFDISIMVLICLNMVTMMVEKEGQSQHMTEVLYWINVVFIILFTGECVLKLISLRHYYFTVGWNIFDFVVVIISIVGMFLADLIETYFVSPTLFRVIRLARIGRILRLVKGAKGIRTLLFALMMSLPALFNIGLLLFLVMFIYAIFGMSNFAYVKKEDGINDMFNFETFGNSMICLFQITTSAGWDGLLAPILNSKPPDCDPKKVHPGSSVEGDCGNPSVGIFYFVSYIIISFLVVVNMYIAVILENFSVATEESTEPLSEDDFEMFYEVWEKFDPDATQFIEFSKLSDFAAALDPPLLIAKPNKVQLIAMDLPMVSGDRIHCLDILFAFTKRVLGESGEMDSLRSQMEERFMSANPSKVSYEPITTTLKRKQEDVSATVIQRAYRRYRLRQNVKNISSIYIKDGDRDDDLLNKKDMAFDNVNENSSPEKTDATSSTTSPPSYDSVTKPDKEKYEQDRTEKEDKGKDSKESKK
experimentDescription: Inhibition of Nav1.7 by cell-based FLIPR assay
pIC50: −log10 of the molar value.

>  <compound>
O=C(NC1CC12CCN(c1ccccc1)CC2)c1ccc(F)c2ccccc12 (stereo unspecified)

>  <pIC50>
6.73

$$$$
>  <compound>
CN(C)c1cccc2c(C(=O)NC3CC34CCN(c3ccccc3)CC4)cccc12 (stereo unspecified)

>  <pIC50>
6.63

$$$$
>  <compound>
CN(C)c1ccc(C(=O)NC2CC23CCN(c2ccccc2)CC3)c2ccccc12 (stereo unspecified)

>  <pIC50>
7.01

$$$$
>  <compound>
c1ccc(CC(NCC2CC23CCN(c2ccccc2)CC3)c2ccccc2)cc1 (stereo unspecified)

>  <pIC50>
6.75

$$$$
>  <compound>
CN(C)c1ccc(C(=O)NC2CC23CCN(c2cc(F)cc(F)c2)CC3)c2ccccc12 (stereo unspecified)

>  <pIC50>
6.82

$$$$
>  <compound>
c1ccc(CN2CCC3(CC2)CC3CNc2ccccc2N2CCCCC2)cc1 (stereo unspecified)

>  <pIC50>
6.54

$$$$
